Biological target: PKC delta (Homo sapiens, UniProt Q05655)
Construct: expressed in transfected cells; host or cells: yeast (XenoGene strain)
Sequence (Q05655 whole entry): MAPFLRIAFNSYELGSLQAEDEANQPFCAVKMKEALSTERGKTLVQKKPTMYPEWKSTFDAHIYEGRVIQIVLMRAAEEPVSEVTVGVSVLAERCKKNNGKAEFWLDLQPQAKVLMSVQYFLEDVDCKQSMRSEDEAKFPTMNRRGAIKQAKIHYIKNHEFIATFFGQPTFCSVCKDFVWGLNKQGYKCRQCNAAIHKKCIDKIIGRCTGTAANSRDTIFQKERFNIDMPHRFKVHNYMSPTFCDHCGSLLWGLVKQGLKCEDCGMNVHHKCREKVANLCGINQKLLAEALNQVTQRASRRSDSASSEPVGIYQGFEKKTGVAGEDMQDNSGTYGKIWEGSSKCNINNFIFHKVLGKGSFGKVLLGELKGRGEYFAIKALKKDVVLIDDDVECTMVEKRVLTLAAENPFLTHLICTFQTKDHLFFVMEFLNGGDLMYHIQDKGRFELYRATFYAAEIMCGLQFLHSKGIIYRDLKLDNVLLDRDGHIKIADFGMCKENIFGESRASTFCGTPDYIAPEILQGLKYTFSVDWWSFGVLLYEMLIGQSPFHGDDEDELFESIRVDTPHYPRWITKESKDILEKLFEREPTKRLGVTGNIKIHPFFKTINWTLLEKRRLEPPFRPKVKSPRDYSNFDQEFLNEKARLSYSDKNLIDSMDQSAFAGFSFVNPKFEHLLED
Experiment: XenoGene counter-screen, PKC delta
Type: cell-based
Conditions: inverse of (PKC-theta IC50)/(PKC-X IC50)
So basically: Selectivity for PKC-theta v. PKC-delta at 8 or higher? That is yes. Lower than 8? That is no.

>  <chemical smiles>
Nc1ccc(Oc2ccc(Cl)cc2Cl)cc1

>  <group label>
no

$$$$
>  <chemical smiles>
Cc1cc(Oc2ccc(N)cc2)ccc1Cl

>  <group label>
yes

$$$$
>  <chemical smiles>
CC(C)(C)c1ccc(Sc2ccc(N)cc2)cc1

>  <group label>
yes

$$$$
>  <chemical smiles>
CC(C)(C)c1ccc(Oc2ccc(N)cc2)cc1

>  <group label>
no

$$$$

----------
Molecular target: Human PKC theta (Homo sapiens, UniProt Q04759)
Construct: expressed in transfected cells; host or cells: yeast (XenoGene strain)
Sequence (Q04759 whole entry): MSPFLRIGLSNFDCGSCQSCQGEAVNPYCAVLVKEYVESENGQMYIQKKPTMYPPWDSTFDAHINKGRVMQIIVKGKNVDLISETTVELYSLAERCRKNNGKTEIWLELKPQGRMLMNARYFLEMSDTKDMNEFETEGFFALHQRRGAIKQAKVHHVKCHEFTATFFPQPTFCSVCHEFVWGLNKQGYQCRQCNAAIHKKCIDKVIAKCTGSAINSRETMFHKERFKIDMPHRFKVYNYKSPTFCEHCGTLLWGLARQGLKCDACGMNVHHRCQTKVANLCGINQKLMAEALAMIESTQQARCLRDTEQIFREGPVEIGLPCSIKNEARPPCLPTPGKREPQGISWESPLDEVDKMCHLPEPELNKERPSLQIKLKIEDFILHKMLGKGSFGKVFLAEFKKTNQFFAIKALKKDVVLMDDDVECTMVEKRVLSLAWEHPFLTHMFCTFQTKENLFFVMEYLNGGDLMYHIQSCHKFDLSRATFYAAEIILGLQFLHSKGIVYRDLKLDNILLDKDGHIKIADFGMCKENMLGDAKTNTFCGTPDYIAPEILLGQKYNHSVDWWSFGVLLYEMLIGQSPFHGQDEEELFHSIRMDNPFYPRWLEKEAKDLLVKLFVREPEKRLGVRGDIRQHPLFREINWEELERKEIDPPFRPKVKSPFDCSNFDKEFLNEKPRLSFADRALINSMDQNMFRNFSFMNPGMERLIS
Assay: XenoGene yeast growth inhibition, yeast containing human PKC theta gene
Format: cell-based
Conditions: IC50, 50% inhibition of growth of yeast containing the target gene

>  <chemical smiles>
CC(=O)Nc1ccc(Oc2ccc(Cl)cc2Cl)cc1

>  <IC50>
> 10 µM

$$$$
>  <chemical smiles>
Nc1ccc(Oc2ccc(C(F)(F)F)cc2Cl)cc1

>  <IC50>
< 1 µM

$$$$

----------
Molecular target: Human PKC theta (Homo sapiens)
Construct: expressed in transfected cells; host or cells: yeast (XenoGene strain)
Assay: XenoGene yeast growth inhibition, yeast containing human PKC theta gene
Type: cell-based
Conditions: 50% inhibition of growth of yeast containing the target gene; read-out: IC50
pIC50: −log10 of the molar value.
endpoint: pIC50

>  <compound>
CC(C)c1ccc(Oc2ccc(N)cc2)cc1 [Compound 742]

>  <endpoint>
pIC50

>  <meas value>
> 6.00

$$$$
>  <compound>
Nc1ccc(Oc2ccc(C(F)(F)F)cc2)cc1 [Compound 733]

>  <endpoint>
pIC50

>  <meas value>
5.00 to 6.00

$$$$
>  <compound>
CC(C)(C)c1ccc(S(=O)(=O)c2ccc(N)cc2)cc1 [Compound 749]

>  <endpoint>
pIC50

>  <meas value>
5.00 to 6.00

$$$$
>  <compound>
Nc1ccc(Oc2ccc(OC(F)(F)F)cc2)cc1 [Compound 510]

>  <endpoint>
pIC50

>  <meas value>
> 6.00

$$$$
>  <compound>
CC(C)(C)c1ccc(Sc2ccc(N)cc2)cc1 [Compound 740]

>  <endpoint>
pIC50

>  <meas value>
> 6.00

$$$$
>  <compound>
Nc1ccc(Oc2cc(Cl)cc(Cl)c2)cc1 [Compound 504]

>  <endpoint>
pIC50

>  <meas value>
5.00 to 6.00

$$$$
>  <compound>
Nc1ccc(S(=O)(=O)c2ccc(C(F)(F)F)cc2)cc1 [Compound 753]

>  <endpoint>
pIC50

>  <meas value>
5.00 to 6.00

$$$$
>  <compound>
Nc1ccc(Oc2ccc(C(F)(F)F)cc2Br)cc1 [Compound 747]

>  <endpoint>
pIC50

>  <meas value>
> 6.00

$$$$
>  <compound>
Cc1cc(Oc2ccc(N)cc2)ccc1Cl [Compound 505]

>  <endpoint>
pIC50

>  <meas value>
> 6.00

$$$$
>  <compound>
CCCc1ccc(Oc2ccc(N)cc2)cc1 [Compound 745]

>  <endpoint>
pIC50

>  <meas value>
> 6.00

$$$$
>  <compound>
Nc1ccc(Sc2ccc(C(F)(F)F)cc2)cc1 [Compound 741]

>  <endpoint>
pIC50

>  <meas value>
> 6.00

$$$$
>  <compound>
Nc1ccc(Oc2ccccc2)cc1 [Compound 500]

>  <endpoint>
pIC50

>  <meas value>
< 5.00

$$$$
>  <compound>
Cc1cc(Oc2ccc(N)cc2)ccc1Cl [Compound 507]

>  <endpoint>
pIC50

>  <meas value>
5.00 to 6.00

$$$$
